Target: PBP2ALGA (Staphylococcus aureus, UniProt F4NA57)
Sequence (F4NA57 23-665 limits assumed): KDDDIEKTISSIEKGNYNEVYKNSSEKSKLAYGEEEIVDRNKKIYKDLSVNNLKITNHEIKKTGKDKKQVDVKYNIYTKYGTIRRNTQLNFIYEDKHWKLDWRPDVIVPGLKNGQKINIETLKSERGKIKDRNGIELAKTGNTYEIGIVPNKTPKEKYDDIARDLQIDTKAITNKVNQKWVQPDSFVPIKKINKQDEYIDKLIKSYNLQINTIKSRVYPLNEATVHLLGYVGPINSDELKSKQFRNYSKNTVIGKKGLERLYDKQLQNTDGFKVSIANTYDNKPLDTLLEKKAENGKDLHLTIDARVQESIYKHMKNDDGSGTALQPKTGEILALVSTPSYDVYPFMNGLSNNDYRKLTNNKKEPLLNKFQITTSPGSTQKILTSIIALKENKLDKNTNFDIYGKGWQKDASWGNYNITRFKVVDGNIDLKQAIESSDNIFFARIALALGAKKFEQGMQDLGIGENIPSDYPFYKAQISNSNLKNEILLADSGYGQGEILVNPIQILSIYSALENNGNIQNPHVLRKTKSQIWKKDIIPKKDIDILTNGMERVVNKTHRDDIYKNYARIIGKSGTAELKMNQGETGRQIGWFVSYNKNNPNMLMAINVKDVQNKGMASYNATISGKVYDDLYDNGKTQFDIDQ
Here the recorded pIC50 is given for each entry.
Quick note: pIC50 means taking -log10 of the concentration in moles per liter.

>>> result_number("Cc1onc(-c2ccccc2)c1C(=O)N[C@@H]1C(=O)N2[C@@H]1SC(C)(C)[C@@H]2C(=O)O")
3.67

Now let's try a different one.
Q: Value lookup for pIC50; key = "CO[C@@]1(NC(=O)Cc2cccs2)C(=O)N2C(C(=O)O)=C(COC(N)=O)CS[C@@H]21"
Result: 3.30
